- System: Escherichia coli
- experiment_description: Minimum inhibitory concentration (MIC)preventing growth of Escherichia coli
- Format: functional
Rule: measured MIC below 0.2 µg/mL gets 1.0; anything equal to or greater than 0.2 µg/mL gets 0.0.

The following compounds have reported results that may help.
smiles_notation	label_value
Nc1c(F)c(N2CC(O)C2)c(F)c2c1c(=O)c(C(=O)O)cn2C1CC1	1.0
CC1(N)CN(c2nc3c(cc2F)c(=O)c(C(=O)O)cn3C(C)(C)C)C1	1.0
CNC1(C)CN(c2cc3c(cc2F)c(=O)c(C(=O)O)cn3C2CC2)C1	1.0
CC1(N)CN(c2c(F)cc3c(=O)c(C(=O)O)cn(C(C)(C)C)c3c2F)C1	0.0
CCNC1CN(c2cc3c(cc2F)c(=O)c(C(=O)O)cn3C2CC2)C1	1.0

### Prompt Quick check: does CC1(N)CN(c2c(F)cc3c(=O)c(C(=O)O)cn(CCF)c3c2Cl)C1 have MIC under 0.2 µg/mL?
### Response 1.0

### Prompt Record: CC1(CN)CN(c2c(F)cc3c(=O)c(C(=O)O)cn(C4CC4)c3c2F)C1
### Response 0.0

### Prompt Record: CCn1cc(C(=O)O)c(=O)c2c(N)c(F)c(N3CC(C)(N)C3)c(F)c21
### Response 0.0

### Prompt Record: N#CC1CN(c2c(F)cc3c(=O)c(C(=O)O)cn(C4CC4)c3c2F)C1
### Response 0.0

### Prompt Record: CN(C)C1(C)CN(c2cc3c(cc2F)c(=O)c(C(=O)O)cn3C2CC2)C1
### Response 0.0

### Prompt Record: NC1CN(c2c(F)cc3c(=O)c(C(=O)O)cn(C4CC4)c3c2F)C1
### Response 1.0

### Prompt Record: CC1(n2cccc2)CN(c2c(F)cc3c(=O)c(C(=O)O)cn(C4CC4)c3c2F)C1
### Response 0.0

### Prompt Record: CC1(N)CN(c2nc3c(cc2F)c(=O)c(C(=O)O)cn3-c2ccc(F)cc2F)C1
### Response 1.0

### Prompt Record: CNC1(C)CN(c2c(F)cc3c(=O)c(C(=O)O)cn(C4CC4)c3c2F)C1
### Response 1.0

### Prompt Record: O=C(O)c1cn(C2CC2)c2c(F)c(N3CC(C(=O)O)C3)c(F)cc2c1=O
### Response 0.0

### Prompt Record: CCn1cc(C(=O)O)c(=O)c2c(N)c(F)c(N3CC(N)C3)c(F)c21
### Response 1.0

### Prompt Record: CC1(O)CN(c2cc3c(cc2F)c(=O)c(C(=O)O)cn3C2CC2)C1
### Response 0.0

### Prompt Record: CC1(N)CN(c2c(F)cc3c(=O)c4c(=O)[nH]sc4n(C4CC4)c3c2F)C1
### Response 1.0

### Prompt Record: Nc1c(F)c(N2CC(N)C2)c(F)c2c1c(=O)c(C(=O)O)cn2C1CC1
### Response 1.0

### Prompt Record: CC1(N)CN(c2cc3c(cc2F)c(=O)c(C(=O)O)cn3C2CC2)C1
### Response 1.0

### Prompt Record: NCC1CN(c2cc3c(cc2F)c(=O)c(C(=O)O)cn3C2CC2)C1
### Response 1.0

### Prompt Record: CNC1CN(c2c(F)cc3c(=O)c(C(=O)O)cn(-c4ccc(F)cc4F)c3c2Cl)C1
### Response 1.0

### Prompt Record: CC1(O)CN(c2c(F)cc3c(=O)c(C(=O)O)cn(C4CC4)c3c2F)C1
### Response 0.0

### Prompt Record: CNC1CN(c2c(F)cc3c(=O)c(C(=O)O)cn(C4CC4)c3c2Cl)C1
### Response 1.0
